Please provide measured solubility for the entries that follow.
Test: Kinetic solubility
Conditions: kinetic from dmso stock, Solubility, kinetic solubility; n = 1 or average of n = 2-3
Number only, in µM; omit the unit.

Data request: Provide measured solubility value, entry: CC(C)n1nccc1-c1ccc2nccc(C(=O)NCC(=O)N3CSC[C@H]3C#N)c2c1
Data returned: 6

Data request: Provide measured solubility value, entry: C[C@H]1CC(F)(F)CCN1c1ccc2nccc(C(=O)NCC(=O)N3CSC[C@H]3C#N)c2c1 (mixture of isomers)
Data returned: 140

Data request: Provide measured solubility value, entry: C[C@@H]1CCCN(c2ccc3nccc(C(=O)NCC(=O)N4CSC[C@H]4C#N)c3c2)C1=O (single isomer, unassigned)
Data returned: 480

Data request: Provide measured solubility value, entry: C[C@@H]1COC[C@H](C)N1c1cc2c(C(=O)NCC(=O)N3CSC[C@H]3C#N)ccnc2cc1Br
Data returned: 36

Data request: Provide measured solubility value, entry: CC1(C(F)F)CN(c2ccc3nccc(C(=O)NCC(=O)N4CSC[C@H]4C#N)c3c2)C1
Data returned: 310

Data request: Provide measured solubility value, entry: N#C[C@@H]1CSCN1C(=O)CNC(=O)c1ccnc2ccc(N3CC4CCCC4C3)cc12 (stereo partly drawn)
Data returned: 2.6

Data request: Provide measured solubility value, entry: N#C[C@@H]1CSCN1C(=O)CNC(=O)c1ccnc2ccc(N3C[C@H]4CCC[C@@H](C3)O4)cc12
Data returned: 480

Data request: Provide measured solubility value, entry: C[C@@H]1CCCN1c1ccc2nccc(C(=O)NCC(=O)N3CSC[C@H]3C#N)c2c1
Data returned: 110

Data request: Provide measured solubility value, entry: N#C[C@@H]1CSCN1C(=O)CNC(=O)c1ccnc2ccc(N3C[C@@H](F)[C@@H](F)C3)cc12
Data returned: 33

Data request: Provide measured solubility value, entry: N#C[C@@H]1CSCN1C(=O)CNC(=O)c1ccnc2ccc(N3CCC[C@H]3C3CC3)cc12 (single isomer, unassigned)
Data returned: 81

Data request: Provide measured solubility value, entry: N#C[C@@H]1CSCN1C(=O)CNC(=O)c1ccnc2ccc(N3CC(F)(c4ccccc4)C3)cc12
Data returned: 230

Data request: Provide measured solubility value, entry: COC[C@@H]1[C@@H](C)OCCN1c1ccc2nccc(C(=O)NCC(=O)N3CSC[C@H]3C#N)c2c1
Data returned: 950

Data request: Provide measured solubility value, entry: N#C[C@@H]1CSCN1C(=O)CNC(=O)c1ccnc2ccc(N3CC(OC(F)(F)F)C3)cc12
Data returned: 13

Data request: Provide measured solubility value, entry: CO[C@H]1CCN(c2ccc3nccc(C(=O)NCC(=O)N4CSC[C@H]4C#N)c3c2)C1
Data returned: 280
